Hey, just so you know, these numbers are from the supplement of paper PMC10681739.

# target-of-assay: ETS1 (UniProt P14921)
# Sequence: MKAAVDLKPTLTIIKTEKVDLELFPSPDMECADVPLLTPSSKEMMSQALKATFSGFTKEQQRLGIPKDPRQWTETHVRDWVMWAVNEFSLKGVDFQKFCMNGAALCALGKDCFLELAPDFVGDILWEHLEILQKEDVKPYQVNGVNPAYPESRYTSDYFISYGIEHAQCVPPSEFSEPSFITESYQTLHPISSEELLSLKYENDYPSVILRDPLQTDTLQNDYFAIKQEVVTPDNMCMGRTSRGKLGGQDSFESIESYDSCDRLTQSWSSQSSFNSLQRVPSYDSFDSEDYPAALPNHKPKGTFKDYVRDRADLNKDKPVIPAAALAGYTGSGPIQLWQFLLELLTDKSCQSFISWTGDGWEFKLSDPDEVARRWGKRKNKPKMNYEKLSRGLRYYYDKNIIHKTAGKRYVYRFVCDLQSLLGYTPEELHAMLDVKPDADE
# protocol-details: ETS1 binding intensity (PBM fluorescence), ETS1 alone (arbitrary fluorescence units); higher = stronger binding
# recorded-conditions: ETS1 concentration 1 nM; RUNX1 concentration 0 nM
Listing of recorded ETS1 binding intensity by entry.
Enter a number only.

Please review the following examples before continuing.
Measured on ETS1 (UniProt P14921), "TTACACCCAAGGGATGTTGTTTGTGGGGGGCGGGGT" has a documented ETS1 binding intensity of 445

Reported ETS1 binding intensity (ETS1 (UniProt P14921)) for entry "GCGAGCACTTCCGGTGTGTGAGCCTGCGGTTGCTAC" is 7480

Hey, ETS1 (UniProt P14921) data for "AGGCCCGGATACCCGCCCCCAAAACCGCGTCCACAA" : ETS1 binding intensity came out at 523

The sequence "ACTTTCGCGACGCAGGAAGCGCCCACAAAGGGAGGA" on ETS1 (UniProt P14921): ETS1 binding intensity was 2020

Measured on ETS1 (UniProt P14921), "CCCACCCTCGCCGGAAGCCGAGCGGTTTCTACATCA" has a documented ETS1 binding intensity of 2120

Fill in: ETS1 (UniProt P14921) ETS1 binding intensity for "TGTCAGCTGCGTTTCCGCGGTCGCGGGTGAGTGTGC" = 418

Entry "GCTCCGCTTCCGGGAGGCGGGGCTTCTGCGGGTTCC" under ETS1 (UniProt P14921) had ETS1 binding intensity of 698

Summary: "GAATCACCATTTCCTCACTCCCACACAACCATGTTG" , ETS1 (UniProt P14921), ETS1 binding intensity = 485

Recorded ETS1 binding intensity for "TTTACAGGAAATATCCAGAACAGGTAAACCCACAGA" on ETS1 (UniProt P14921) was 778

Lab note: sequence "GCTACGGGTTCCCCGGATGGAGCCGCAGTCCGGCCG" tested on ETS1 (UniProt P14921); recorded ETS1 binding intensity was 858

Continuing:
Summary: "GCTGCTTCCGGCCGCTGGTCGCAGGGCTGCGGGACT" , ETS1 (UniProt P14921), ETS1 binding intensity = 865

Short answer on ETS1 (UniProt P14921) for "CGAAGAGGAAGCCCCTGTATCACCCCACAAGAAGCC" , ETS1 binding intensity: 544

Field ETS1 binding intensity (system: ETS1 (UniProt P14921)) for entry "GTGAATGAGGGGGAAGGAAGTGGTTTGGAAAAATAC" = 1890

Summary: "CTGCAGACAGGAGGATGTGGGCTTGCGCGCAAACAG" , ETS1 (UniProt P14921), ETS1 binding intensity = 675

* * *

# target-of-assay: RUNX1 (UniProt Q01196)
# Sequence (Q01196 whole entry): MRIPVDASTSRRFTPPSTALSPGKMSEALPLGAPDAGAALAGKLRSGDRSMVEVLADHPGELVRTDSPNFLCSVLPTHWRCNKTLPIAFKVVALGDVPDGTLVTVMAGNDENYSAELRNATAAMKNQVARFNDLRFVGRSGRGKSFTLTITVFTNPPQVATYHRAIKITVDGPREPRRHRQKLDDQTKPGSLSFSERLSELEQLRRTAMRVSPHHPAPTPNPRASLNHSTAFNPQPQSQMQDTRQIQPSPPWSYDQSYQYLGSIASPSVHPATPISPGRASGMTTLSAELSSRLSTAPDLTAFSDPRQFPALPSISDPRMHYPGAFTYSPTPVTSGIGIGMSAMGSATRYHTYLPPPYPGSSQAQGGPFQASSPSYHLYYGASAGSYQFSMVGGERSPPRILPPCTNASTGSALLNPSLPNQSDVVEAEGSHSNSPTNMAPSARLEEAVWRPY
# protocol-details: RUNX1 binding intensity (PBM fluorescence) in presence of ETS1, normalised to RUNX1-only experiment (arbitrary fluorescence units); higher = stronger binding
# recorded-conditions: RUNX1 concentration 2 nM; ETS1 concentration 25 nM
recorded-endpoint: RUNX1 binding intensity

# count of solved cases: 2
Input "GGACCGGAAGTTAAGGCGTTCGCGGCGTGTGGTAAG" . Output RUNX1 binding intensity: 1560

# sequence "TGGGCTTTGCAGGAAGCTGTGGTTCACCTACAGCCT" ; its RUNX1 binding intensity = 866

***
"TAAGTGCAGGAAACGGCTGTGTGGGTGTCAGTGATT" has a reported RUNX1 binding intensity of 906

The sequence listed as "CATGGGACCCGGAAGTGTGTGGTAAAGCGCCGGGGC" shows RUNX1 binding intensity equal to 2350

The sequence listed as "TCTGGCTGGGTGTTGGGATGTGGTTAACCGGGTTGG" shows RUNX1 binding intensity equal to 876

Record summary for "TGACAGACCCGGAAATAAGAGGAGACCACACACTTG" : reported RUNX1 binding intensity = 1410

Looking up "GGCGCGGGCTGCTTCCGGTCTGCGGGCCTGAGGAGG" , I see its RUNX1 binding intensity listed as 1770

Entry "TAGGCGGAAAGCCCGCTAGCCTAAACCACAGAGGGT" , RUNX1 binding intensity reported as 872

Note to self: RUNX1 binding intensity recorded for "TTGTCTGCATCCTGTGCTGTGTGGTAGCTCTGGGTT" was 1490

Per the records, this sequence ( "CGATTCCGGAGACAGGCCCCACCGTGCGGTAAACTG" ) has RUNX1 binding intensity equal to 931

RUNX1 binding intensity reading for "CGGCTGTTTTCCAGGATGTTGTGGTCATGGCGGTGT" : 4090

* * *

Parameter ETS1 binding intensity: see the listing below.
# target-of-assay: ETS1 (UniProt P14921)
# Sequence: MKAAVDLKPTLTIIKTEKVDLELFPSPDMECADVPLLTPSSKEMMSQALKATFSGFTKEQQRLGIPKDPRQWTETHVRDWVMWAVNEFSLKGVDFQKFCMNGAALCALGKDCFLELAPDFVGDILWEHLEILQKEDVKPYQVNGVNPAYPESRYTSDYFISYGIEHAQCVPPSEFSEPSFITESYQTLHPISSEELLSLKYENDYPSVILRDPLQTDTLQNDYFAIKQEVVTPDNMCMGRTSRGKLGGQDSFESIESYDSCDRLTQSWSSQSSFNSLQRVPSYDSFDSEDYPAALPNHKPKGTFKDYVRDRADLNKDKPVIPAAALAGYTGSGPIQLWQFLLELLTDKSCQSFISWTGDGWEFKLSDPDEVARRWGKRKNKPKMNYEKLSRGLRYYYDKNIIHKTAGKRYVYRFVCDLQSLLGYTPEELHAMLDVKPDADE
# protocol-details: ETS1 binding intensity (PBM fluorescence), ETS1 alone (arbitrary fluorescence units); higher = stronger binding
# recorded-conditions: ETS1 concentration 1 nM; RUNX1 concentration 0 nM
Write no unit; give the number alone.

Per the records, this sequence ( "CTCAGAGCTGCGGAAACTACAACTCCCACAAGGCTG" ) has ETS1 binding intensity equal to 738

sequence "TGCGCCGGAAGTGCATGAGCTGCCGATGTGGTGCTT" , ETS1 binding intensity observed: 4760

Alright, here's another sequence for you.
Record summary for "CGAGATCCTGGCCACGGATGCGGTGGCCGCGCCTCT" : reported ETS1 binding intensity = 414

* * *

// values below are reported ETS1 binding intensity
# target-of-assay: ETS1 (UniProt P14921)
# Sequence: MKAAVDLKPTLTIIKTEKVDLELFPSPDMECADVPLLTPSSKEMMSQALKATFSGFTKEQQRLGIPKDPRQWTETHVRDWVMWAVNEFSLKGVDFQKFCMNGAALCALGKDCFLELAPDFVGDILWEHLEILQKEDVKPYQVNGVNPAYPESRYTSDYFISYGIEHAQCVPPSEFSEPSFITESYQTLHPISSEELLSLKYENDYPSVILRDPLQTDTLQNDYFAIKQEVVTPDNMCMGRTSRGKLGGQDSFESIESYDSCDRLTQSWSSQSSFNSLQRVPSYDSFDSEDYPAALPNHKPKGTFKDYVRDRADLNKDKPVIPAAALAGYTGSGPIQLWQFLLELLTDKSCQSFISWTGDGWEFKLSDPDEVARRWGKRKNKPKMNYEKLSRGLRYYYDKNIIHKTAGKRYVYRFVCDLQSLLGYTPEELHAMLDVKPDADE
# protocol-details: ETS1 binding intensity (PBM fluorescence), ETS1 alone (arbitrary fluorescence units); higher = stronger binding
# recorded-conditions: ETS1 concentration 1 nM; RUNX1 concentration 0 nM
Form: value (number only, do not type unit).

Record "AGGGTGTGGAGGAAGTGGCTTACAACCACTTTGTCT" , field ETS1 binding intensity: 1270

Here's the next entry for you.
Sure, the documented ETS1 binding intensity for "GCCCCCATGCTTCCTGTTGTGGGAGATGAAGTGTGG" is 1710

* * *

# target-of-assay: RUNX1 (UniProt Q01196)
# protocol-details: RUNX1 binding intensity (PBM fluorescence), RUNX1 alone (arbitrary fluorescence units); higher = stronger binding
# recorded-conditions: RUNX1 concentration 2 nM; ETS1 concentration 0 nM
recorded-endpoint: RUNX1 binding intensity
Kindly provide the number alone.

RUNX1 binding intensity in this record for "TTAGAGCTGACATCCTTGCGGTCCACAGCCTCCAAA" : 961

Summary for this sequence, "GGGCCCGGGCCAGGAAGTGGTTTTGCAGAGGTGTTT" : RUNX1 binding intensity is 763

Field RUNX1 binding intensity (entry "ACACCGGAAGCCCAACAGCATGCCGAGTAACCACCC" ) reads 864

New cases:
Reported RUNX1 binding intensity of "ACGACGTCCCGGAAGTGCTGCGGCAATGTTGCTCTT" : 759

Looking up "CAGTGGCTAAGGATCCGGTGTTGCGGTGATACATGA" , I found its RUNX1 binding intensity recorded as 804

// "CCGGGTAGGATCCGGTTGCCTTTCTGCGGTGGAGGA" : RUNX1 binding intensity value = 848

The value of RUNX1 binding intensity measured for the sequence "TCCCGGGGAGGAAGTGGCGAGAATGCGGGGGTGGGC" turned out to be 906

Sample "GCGAAAAACGCGGAAATGCGGTGGCGGCGGCCCGCT" ; RUNX1 binding intensity observed: 721

For record "GTTAGCGTGATCGGAGGATGTGGTTTTCCTCCCTCT" the listed RUNX1 binding intensity is 942

Sample "GCAGGGACCGGAAGTCCATGGCTCTGCCGCAACCCT" ; RUNX1 binding intensity observed: 738

Lookup result for "TTAAGGAGCTTCCGGGGCCGCGGGTAGAGGCGGGTG" ; measured RUNX1 binding intensity: 676
